Reported values of TGI for individual entries
Test system: UO-31 renal
procedure_summary: NCI tumour cell line growth inhibition, 48 h

| compound | TGI |
| --- | --- |
| COc1ccc2oc(=O)c(CC=C(C)C)c(O)c2c1C | > 100 µM |
| Nc1nc(N)c(N=O)c(Nc2ccc(I)cc2)n1 | > 100 µM |
| Cn1c(=O)c2c(nc(N)n2C2OC(CO)C(O)C2O)n(C)c1=O (stereo not given) | > 100 µM |
| Nc1ccc2c(c1)CC1c3ccccc3C(C2)c2ccccc21 | > 100 µM |
| Cc1cc(C)n(-c2nc3ccccc3c(=O)n2-c2ccccc2)n1 | 14.3 µM |

====

Test system: HCC-2998 colon
procedure_summary: NCI tumour cell line growth inhibition, 48 h
Reported values of log10 of TGI for individual entries
measurement_name: log10 of TGI (log10 of the value in µM)

| molecule | number |
| --- | --- |
| CC[N+]1(C)CCC(O)(c2ccccc2)C(C(=O)c2ccccc2)C1 (stereo not given) | 1.70 |
| ICCC(c1ccccc1)(c1ccccc1)c1ccccc1 | 1.44 |
| CC(C)=C[C@@H]1C[C@H](C)c2c(O)cc(C)c3c2C1=C(C)C(=O)C3=O | 1.73 |
| NC1CC(=O)c2csc(Cl)c21 (stereo not given) | 1.53 |
| CC(=O)O[C@H]1CC[C@]2(C)[C@H]3CC=C4[C@@H]5CC(C)(C)CC[C@]5(C(=O)NCCNCCN)CC[C@@]4(C)[C@]3(C)CC[C@H]2C1(C)C | 0.33 |
| CC1=C(C#N)C2C(=C(N)Oc3ccccc32)C(N)=N1 (stereo not given) | 1.84 |

====

Tested on: HOP-92 NSCLC
procedure_summary: NCI tumour cell line growth inhibition, 48 h
Reported values of TGI for individual entries

| compound | sign | TGI [µM] |
| --- | --- | --- |
| O=c1cc(-c2ccccc2)oc2ccc(-c3ccc4oc(-c5ccccc5)cc(=O)c4c3)cc12 | = | 30.8 |
| COc1cc2ccnc3c2c(c1OC)-c1ccc(=O)ccc1-3 | = | 80.4 |
| O=C(NCCNCCNCCNC(=O)c1cc(-c2ccccc2)nc2ccccc12)c1cc(-c2ccccc2)nc2ccccc12 | = | 7.81 |
| S=C=NCc1ccccc1 | = | 17 |
| COc1ccc(C2CC(=O)CC(c3ccc(OC)cc3)C23C(=O)NC(=S)NC3=O)cc1 (stereo unspecified) | > | 100 |
| O=C(O)C1=NNC(C(=O)O)=NN1 | > | 100 |

====

Test system: SF-268 CNS
procedure_summary: NCI tumour cell line growth inhibition, 48 h
measurement_name: TGI

| compound | tested_target | result |
| --- | --- | --- |
| CC(C)C1SCc2nc3ccccc3n21 (configuration not stated) | SF-268 CNS | > 100 µM |
| O=C(Nc1nc2ccccc2n1Cc1ccc(Cl)cc1)NC12CC3CC(CC(C3)C1)C2 | SF-268 CNS | 23.8 µM |
| Cc1ccccc1-c1c(N)nc(N)nc1C(=O)Nc1nccs1 | SF-268 CNS | > 100 µM |
| CC[C@H](C)[C@H](NC(=O)Nc1ccccc1)C(=O)N(C)[C@H](C[C@@H](OC(C)=O)c1nc(C(=O)N[C@@H](Cc2ccccc2)C[C@H](C)C(=O)OC)cs1)C(C)C | SF-268 CNS | > 100 µM |
| CCOC(=O)NC | SF-268 CNS | > 100 µM |
| CSCCCNC(=O)c1csc(-c2csc(CCN)n2)n1 | SF-268 CNS | > 100 µM |
| COc1ccc(C2CC(c3ccc4ccccc4c3O)=NN2C(C)=O)cc1OC (configuration not stated) | SF-268 CNS | > 100 µM |
| CCN(CC)CCn1c2cc3c(cc2c(=O)c2cccnc21)OCO3 | SF-268 CNS | > 10 µM |
| CCCCCCCCCCCC[n+]1ccccc1 | SF-268 CNS | 5.67 µM |
| CCC[CH2][Ge]([CH2]CCC)([CH2]CCC)[O]C(=O)C(O)c1ccccc1 (configuration not stated) | SF-268 CNS | > 65.1 µM |
| NNc1ccccc1Cl | SF-268 CNS | > 100 µM |
| Nc1nc(N)c2c(ccc3nccc32)[nH]1 | SF-268 CNS | 56.2 µM |
| O=C(NCCNCCNCCNC(=O)c1cc(-c2ccccc2)nc2ccccc12)c1cc(-c2ccccc2)nc2ccccc12 | SF-268 CNS | 10.1 µM |
| CC1OC(OC2CCCc3c(O)c4c(c(O)c32)C(=O)c2ccccc2C4=O)CC(N)C1O (configuration not stated) | SF-268 CNS | 3.29 µM |
| CC1(O)CC2(O)C=CC3=C(C(=O)c4cccc(O)c4C3=O)C2(O)C(=O)C1O (configuration not stated) | SF-268 CNS | 17.1 µM |
| Cc1ccc(NC(=O)CC/C(CC(=O)c2ccc(F)cc2)=N\NC(=O)C(=O)NN)cc1C | SF-268 CNS | > 100 µM |
| COc1ccc(C2=Nn3c(nc4sc(-c5ccccc5)cc4c3=O)SC2)cc1 | SF-268 CNS | > 100 µM |
| CC(C)(C)OC(=O)NC(Cc1ccc(OCc2ccccc2)cn1)C(=O)NCc1ccccc1 (configuration not stated) | SF-268 CNS | 75 µM |
| Cc1ccccc1NC(=O)C1C(=O)N(c2ccccc2C)C(=O)/C1=N\N (configuration not stated) | SF-268 CNS | > 100 µM |
| CC1(Br)C(=O)NC(=O)N(C2CC(N=[N+]=[N-])C(CO)O2)C1N=[N+]=[N-] (configuration not stated) | SF-268 CNS | > 100 µM |
| Cc1c2cccc-2ccc2c1[nH]c1ccc(Br)cc12 | SF-268 CNS | 17.2 µM |
| C/C=C/C(C#N)(Cc1ccccc1)OP1(=O)OC(c2ccccc2)C(C)N1C (configuration not stated) | SF-268 CNS | > 100 µM |

====

Reported values of TGI for individual entries
Tested on: DU-145 prostate
procedure_summary: NCI tumour cell line growth inhibition, 48 h

| molecule | sign | TGI, µM |
| --- | --- | --- |
| Nc1ncnc2c(C3OC(CO)C(O)C3O)[nH]nc12 (stereo not drawn) | = | 0.278 |
| CNNC(=N\S(=O)(=O)c1cc(C(=O)Nc2ccc(Cl)cc2)c(Cl)cc1SCc1ccccc1)/N=C/c1ccc([N+](=O)[O-])s1 | > | 100 |
| Nc1c(C(=O)c2cccc(C#CCN3CCOCC3)c2)cnn1-c1ccc(F)cc1 | > | 25 |
| COc1cc2nc(N3CCCC3)nc(Nc3ccccc3)c2cc1OC | = | 3.07 |
| Nc1nc(N)c2c(ccc3nccc32)[nH]1 | = | 57.4 |
| BrCCCc1n(Cc2ccc3ccccc3c2)c2ccccc2[n+]1Cc1ccc2ccccc2c1 | = | 4.25 |
| COc1ccc([C@H]2C=C(c3cc(F)c(Cl)cc3Cl)NC(=S)N2)cc1 | > | 100 |
| COc1cc2nc(-c3ccccc3F)[nH]c(=O)c2cc1OC | > | 100 |
| COc1ccc2oc(=O)c3c(c2c1C)OC(C)(C)C=C3 | > | 100 |
| CCN1C(=O)c2ccccc2C1(O)c1ccc(Cl)cc1 (stereo not drawn) | > | 100 |
| C[C@H]1CCCCC[C@@H]2CC(=O)CC2C(=O)CCC(=O)O1 (stereo partly drawn) | > | 100 |
| ICCC(c1ccccc1)(c1ccccc1)c1ccccc1 | = | 21.6 |
| NC1CC(=O)c2csc(Cl)c21 (stereo not drawn) | = | 20.9 |
| CN(C)CCNC(=O)Cn1ccc(=O)c2ccc([N+](=O)[O-])cc21 | > | 100 |
| COc1cccc(-n2ncc3c(N/N=C/c4ccc(S(C)(=O)=O)cc4)ncnc32)c1 | > | 25 |
| CC1(C)N=C(N)N=C(N)N1c1cccc(CCCCc2ccccc2)c1 | = | 15 |
| O=C(O)c1nc2ccccc2nc1Nc1ccc(F)cc1 | > | 100 |
| CCOC(CI)O[C@@H]1C=C[C@H](OC(C)=O)C1 (stereo partly drawn) | > | 100 |
| CO[C@@H]1C=C[C@@]23c4cc5c(cc4C(O)N(CC2O)C3C1)OCO5 (stereo partly drawn) | = | 50.7 |
| NC(CSc1nc2ccccn2c1[N+](=O)[O-])C(=O)O (stereo not drawn) | > | 100 |
| N#Cc1c(N)c2c(c(-c3ccccc3)c1-c1ccccc1)C(=O)N(NC(=O)c1ccccc1)C2=O | > | 100 |
| O=C(NC(=S)NNC(=S)NNc1ccccc1)c1ccccc1 | > | 100 |
| O=C1c2ccccc2C(=O)c2c1ccc(C(=O)O)c2-c1ccc2ccccc2c1 | = | 46.6 |
| CC(C)=C[C@@H]1C[C@H](C)c2c(O)cc(C)c3c2C1=C(C)C(=O)C3=O | = | 28.6 |
| Cc1cc(C)n(-c2nc3ccccc3c(=O)n2-c2ccccc2)n1 | > | 100 |
| O=C1/C(=C/c2ccccc2)N=C(c2ccccc2)N1C1Nc2cc3c(cc2S1)NC(N1C(=O)/C(=C/c2ccccc2)N=C1c1ccccc1)S3 (stereo not drawn) | > | 100 |
| CC#Cc1cc2c(cc1O)CC[C@@H]1[C@@H]2CC[C@]2(C)[C@@H](O)CC[C@@H]12 | = | 46.9 |
| c1ccc2sc(SCN(C3CCCCC3)C3CCCCC3)nc2c1 | > | 100 |
| C/C1=C\[C@H](C)C[C@H](C)OC(=O)C[C@H](c2ccc(O)cc2)NC(=O)[C@H](Cc2ccc(O)c(Br)c2)N(C)C(=O)[C@H](C)NC(=O)[C@@H](C)C1 | > | 25 |
| C[C@]12CC[C@H](O)C=C1CC[C@@H]1[C@@H]2CC[C@]2(C)C(=N/O)/C(=C/c3ccncc3)C[C@@H]12 | = | 19.9 |
| CC(C)Oc1ccc(CNC2=NCCO2)c2ccccc12 | = | 33.5 |
| C[C@]12CCC3c4ccc(O)cc4CCC3C1Cc1ccc(O)cc12 (stereo partly drawn) | = | 28.5 |
| OCCNc1ncnc2c1ncn2C1OC(CO)C(O)C1O (stereo not drawn) | = | 67.7 |
| CC(C)c1c(O[Si](C(C)C)(C(C)C)C(C)C)c2c3c(ccc4c3c1OC4(C)C)C(C)CC2 (stereo not drawn) | > | 100 |
| CN1C(=O)[C@@H]2N(CSC2(C)C)C1=S | > | 100 |
| O=C(O)CCCSc1nc2ccccc2s1 | > | 100 |
| S=C=NCc1ccccc1 | > | 41.2 |
| O=C(Nc1ccccc1)NS(=O)(=O)c1ccc(N2N=C3c4ccccc4CC3C2c2ccccn2)cc1 (stereo not drawn) | > | 100 |
| COc1ccc(OC)c(-c2nc3ccccc3c(=O)[nH]2)c1 | > | 100 |
| CCCN(CCC)c1cc2c(cc1F)c(=O)c(C(=O)O)cn2-c1ccc(N2CCN(C)CC2)cn1 | = | 45.3 |
| c1ccc(-c2nnc(Nc3ccc4c(c3)OCCO4)o2)c(NCc2ccncc2)c1 | = | 0.566 |
| CC(=O)OC1CCC2(C)C(CCC3C4CC=C(C(C)=O)C4(C)OC(=O)CC32)C1 (stereo not drawn) | = | 6.1 |
| COc1cc2ccnc3c2c(c1OC)-c1ccc(=O)ccc1-3 | > | 100 |
